Molecular target: UniProt P00918
Assay: Hydratase Activity Assay

| smiles.data | IC50 / µM |
| --- | --- |
| CC(=O)/C(=N\Nc1ccc(-n2nc(C(=O)Nc3nnc(S(N)(=O)=O)s3)c(C(=O)c3ccccc3)c2-c2ccccc2)cc1)C(=O)c1ccccc1 | 0.16 |
| CCOC(=O)C(=NNc1ccc(-n2nc(C(=O)Nc3nnc(S(N)(=O)=O)s3)c(C(=O)c3ccccc3)c2-c2ccccc2)cc1)C(=O)OCC | 1 |
| NS(=O)(=O)c1nnc(NC(=O)c2nn(-c3ccc(/N=N/c4ccc(O)cc4)cc3)c(-c3ccccc3)c2C(=O)c2ccccc2)s1 | 0.8 |
